The reader will find reported inhibition values listed item by item below.
- Tested on: Epidermal growth factor receptor (Homo sapiens), P00533 [L858R,T790M]
- Sequence (P00533 whole entry T790M/L858R, looked up, the tested form may be a part): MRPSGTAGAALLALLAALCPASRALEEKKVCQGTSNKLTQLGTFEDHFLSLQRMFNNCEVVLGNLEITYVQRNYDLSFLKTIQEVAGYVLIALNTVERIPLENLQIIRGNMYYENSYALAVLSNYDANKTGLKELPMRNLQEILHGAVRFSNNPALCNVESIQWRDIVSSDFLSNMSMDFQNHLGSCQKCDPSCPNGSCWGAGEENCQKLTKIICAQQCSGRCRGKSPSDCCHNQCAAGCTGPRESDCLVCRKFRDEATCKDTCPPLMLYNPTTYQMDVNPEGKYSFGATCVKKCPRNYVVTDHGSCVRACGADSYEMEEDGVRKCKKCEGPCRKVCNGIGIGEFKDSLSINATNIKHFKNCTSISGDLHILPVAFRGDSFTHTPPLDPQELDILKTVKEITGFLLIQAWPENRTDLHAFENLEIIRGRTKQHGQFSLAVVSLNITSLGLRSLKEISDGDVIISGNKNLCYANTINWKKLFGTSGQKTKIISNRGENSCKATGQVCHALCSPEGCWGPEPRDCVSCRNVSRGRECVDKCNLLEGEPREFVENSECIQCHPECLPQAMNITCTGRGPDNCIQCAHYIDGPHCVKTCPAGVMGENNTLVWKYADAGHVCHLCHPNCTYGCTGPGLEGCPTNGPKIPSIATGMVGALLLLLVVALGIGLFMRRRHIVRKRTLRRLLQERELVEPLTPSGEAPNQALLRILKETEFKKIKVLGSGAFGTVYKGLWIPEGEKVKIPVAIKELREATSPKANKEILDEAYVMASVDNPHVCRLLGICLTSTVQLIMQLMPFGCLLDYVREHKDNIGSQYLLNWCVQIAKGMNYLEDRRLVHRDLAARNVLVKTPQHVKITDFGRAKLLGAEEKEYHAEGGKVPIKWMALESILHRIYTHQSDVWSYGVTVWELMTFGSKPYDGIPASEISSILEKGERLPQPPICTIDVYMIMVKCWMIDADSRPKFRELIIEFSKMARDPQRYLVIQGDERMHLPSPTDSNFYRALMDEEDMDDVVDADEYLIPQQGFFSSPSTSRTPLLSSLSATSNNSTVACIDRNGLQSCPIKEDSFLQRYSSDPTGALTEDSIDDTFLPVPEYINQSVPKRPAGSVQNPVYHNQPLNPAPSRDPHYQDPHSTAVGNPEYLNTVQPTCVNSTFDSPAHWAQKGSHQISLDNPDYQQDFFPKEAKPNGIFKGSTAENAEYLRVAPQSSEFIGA
- assay notes: Inhibition of N-terminal GST-fused human EGFR L858R/T790M double mutant cytoplasmic domain (669 to 1210 residues) expressed in baculovirus expression system using 5-FAM-EEPLYWSFPAKKK-CONH2 as substrate at 1 uM incubated for 20 mins by Mobility shift assay

{"smiles record": "O=c1ccc2ccc(Oc3nc(Nc4ccc(N5CCS(=O)(=O)CC5)cc4)nc4ccsc34)cc2[nH]1", "display unit": "%", "inhibition": 64}
{"smiles record": "O=c1ccc2ccc(Oc3nc(Nc4ccc(F)cc4)nc4ccsc34)cc2[nH]1", "display unit": "%", "inhibition": 8}
{"smiles record": "O=c1ccc2ccc(Oc3nc(Nc4ccc(N5CCOCC5)cc4)nc4ccsc34)cc2[nH]1", "display unit": "%", "inhibition": 56}
{"smiles record": "CCN1CCN(Cc2ccc(Nc3nc(Oc4ccc5ccc(=O)[nH]c5c4)c4sccc4n3)cc2)CC1", "display unit": "%", "inhibition": 81}

* * *

- Species: Homo sapiens
- assay notes: Selectivity index, ratio of IC50 for N-terminal GST-fused human wild type EGFR cytoplasmic domain (669 to 1210 residues) expressed in baculovirus expression system to IC50 for N-terminal GST-fused human EGFR L858R/T790M double mutant cytoplasmic domain (669 to 1210 residues) expressed in baculovirus expression system

{"smiles record": "CN1CCN(c2ccc(Nc3nc(Oc4ccc5ccc(=O)[nH]c5c4)c4sccc4n3)cc2)CC1", "Ratio IC50": "> 40"}
{"smiles record": "CN1CCN(Cc2ccc(Nc3nc(Oc4ccc5ccc(=O)[nH]c5c4)c4sccc4n3)cc2)CC1", "Ratio IC50": "> 50"}
{"smiles record": "CCN1CCN(Cc2ccc(Nc3nc(Oc4ccc5ccc(=O)[nH]c5c4)c4sccc4n3)cc2)CC1", "Ratio IC50": "> 42"}
{"smiles record": "COc1cc(N2CCN(C)CC2)ccc1Nc1nc(Oc2ccc3ccc(=O)[nH]c3c2)c2sccc2n1", "Ratio IC50": "> 30"}
{"smiles record": "O=c1ccc2ccc(Oc3nc(Nc4ccc(N5CCC(N6CCCCC6)CC5)c(F)c4)nc4ccsc34)cc2[nH]1", "Ratio IC50": 113}
{"smiles record": "CCN1CCN(c2ccc(Nc3nc(Oc4ccc5ccc(=O)[nH]c5c4)c4sccc4n3)c(OC)c2)CC1", "Ratio IC50": "> 30"}
{"smiles record": "CN(C)CCNc1ccc(Nc2nc(Oc3ccc4ccc(=O)[nH]c4c3)c3sccc3n2)cc1F", "Ratio IC50": 61}

* * *

The reader will find reported pIC50 values listed item by item below.
- subject of test: Epidermal growth factor receptor (Homo sapiens, UniProt P00533, L858R/T790M)
- assay notes: Inhibition of N-terminal GST-fused human EGFR L858R/T790M double mutant cytoplasmic domain (669 to 1210 residues) expressed in baculovirus expression system using 5-FAM-EEPLYWSFPAKKK-CONH2 as substrate incubated for 20 mins by Mobility shift assay
pIC50: −log10 of the molar value.

{"smiles record": "COc1cc(N2CCN(C)CC2)ccc1Nc1nc(Oc2ccc3ccc(=O)[nH]c3c2)c2sccc2n1", "subject of test": "Epidermal growth factor receptor (Homo sapiens, UniProt P00533, L858R/T790M)", "qualifying sign": "=", "pIC50": 6.48}
{"smiles record": "O=c1ccc2ccc(Oc3nc(Nc4ccc(N5CCC(N6CCCCC6)CC5)c(F)c4)nc4ccsc34)cc2[nH]1", "subject of test": "Epidermal growth factor receptor (Homo sapiens, UniProt P00533, L858R/T790M)", "qualifying sign": "=", "pIC50": 6.96}
{"smiles record": "CN1CCN(Cc2ccc(Nc3nc(Oc4ccc5ccc(=O)[nH]c5c4)c4sccc4n3)cc2)CC1", "subject of test": "Epidermal growth factor receptor (Homo sapiens, UniProt P00533, L858R/T790M)", "qualifying sign": "=", "pIC50": 6.70}
{"smiles record": "CCN1CCN(c2nc(Oc3ccc4ccc(=O)[nH]c4c3)c3sccc3n2)CC1", "subject of test": "Epidermal growth factor receptor (Homo sapiens, UniProt P00533, L858R/T790M)", "qualifying sign": "<", "pIC50": 6.00}
{"smiles record": "CN1CCN(c2ccc(Nc3nc(Oc4ccc5ccc(=O)[nH]c5c4)c4sccc4n3)nc2)CC1", "subject of test": "Epidermal growth factor receptor (Homo sapiens, UniProt P00533, L858R/T790M)", "qualifying sign": "<", "pIC50": 6.00}
{"smiles record": "CCN1CCN(c2ccc(Nc3nc(Oc4ccc5ccc(=O)[nH]c5c4)c4sccc4n3)c(OC)c2)CC1", "subject of test": "Epidermal growth factor receptor (Homo sapiens, UniProt P00533, L858R/T790M)", "qualifying sign": "=", "pIC50": 6.48}
{"smiles record": "CN1CCN(c2nc(Oc3ccc4ccc(=O)[nH]c4c3)c3sccc3n2)CC1", "subject of test": "Epidermal growth factor receptor (Homo sapiens, UniProt P00533, L858R/T790M)", "qualifying sign": "<", "pIC50": 6.00}
{"smiles record": "COc1cccc(Nc2nc(Oc3ccc4ccc(=O)[nH]c4c3)c3sccc3n2)c1", "subject of test": "Epidermal growth factor receptor (Homo sapiens, UniProt P00533, L858R/T790M)", "qualifying sign": "<", "pIC50": 6.00}
{"smiles record": "O=c1ccc2ccc(Oc3nc(Nc4ccc(F)cc4)nc4ccsc34)cc2[nH]1", "subject of test": "Epidermal growth factor receptor (Homo sapiens, UniProt P00533, L858R/T790M)", "qualifying sign": "<", "pIC50": 6.00}
{"smiles record": "CN1CCN(c2ccc(Nc3nc(Oc4ccc5ccc(=O)[nH]c5c4)c4sccc4n3)cc2)CC1", "subject of test": "Epidermal growth factor receptor (Homo sapiens, UniProt P00533, L858R/T790M)", "qualifying sign": "=", "pIC50": 6.60}
{"smiles record": "CN(C)CCNc1ccc(Nc2nc(Oc3ccc4ccc(=O)[nH]c4c3)c3sccc3n2)cc1F", "subject of test": "Epidermal growth factor receptor (Homo sapiens, UniProt P00533, L858R/T790M)", "qualifying sign": "=", "pIC50": 6.64}
{"smiles record": "CCN1CCN(Cc2ccc(Nc3nc(Oc4ccc5ccc(=O)[nH]c5c4)c4sccc4n3)cc2)CC1", "subject of test": "Epidermal growth factor receptor (Homo sapiens, UniProt P00533, L858R/T790M)", "qualifying sign": "=", "pIC50": 6.62}
{"smiles record": "O=c1ccc2ccc(Oc3nc(Nc4ccc(N5CCOCC5)c(F)c4)nc4ccsc34)cc2[nH]1", "subject of test": "Epidermal growth factor receptor (Homo sapiens, UniProt P00533, L858R/T790M)", "qualifying sign": "<", "pIC50": 6.00}
